- Test Method Notes: Luminescence activity assay of purified Gaussia luciferase mutants on fluoro-coelenterazine
- Assay type: biochemical
- Design: key: ratio of mutant luminescence intensity to wild-type Gaussia luciferase
- Test Conditions: Substrate f-CTZ (Table 16)
Endpoint: Activity of mutant relative to wild-type Gaussia luciferase without the signal peptide
Just the number, please, no unit attached.

Guide cases for Activity of mutant relative to wild-type Gaussia luciferase without the signal peptide, answers given:
P84A E102A S103I D123L V138D: Gaussia luciferase mutant (protein, SIGNAL (1)..(17), Gaussia luciferase mutant) MGVKVLFALICIAVAEAKPTENNEDFNIVAVASNFATTDLDADRGKLPGKKLPLEVLKEMEANARKAGCTRGCLICLSHIKCTAKMKKFIPGRCHTYEGDKAIAQGGIGEAIVDIPEIPGFKLLEPMEQFIAQVDLCDDCTTGCLKGLANVQCSDLLKKWLPQRCATFASKIQGQVDKIKGAGGD	0.991
E102K S103T A104G E110G V138D I172: Gaussia luciferase mutant (protein) MGVKVLFALICIAVAEAKPTENNEDFNIVAVASNFATTDLDADRGKLPGKKLPLEVLKEMEANARKAGCTRGCLICLSHIKCTPKMKKFIPGRCHTYEGDKKTGQGGIGGAIVDIPEIPGFKDLEPMEQFIAQVDLCDDCTTGCLKGLANVQCSDLLKKWLPQRCATFASKIQGQVDKIKGAGGD	2.719

Which Activity of mutant relative to wild-type Gaussia luciferase without the signal peptide is listed for P53L: Gaussia luciferase mutant (protein, SIGNAL (1)..(17), Gaussia luciferase mutant) MGVKVLFALICIAVAEAKPTENNEDFNIVAVASNFATTDLDADRGKLPGKKLLLEVLKEMEANARKAGCTRGCLICLSHIKCTPKMKKFIPGRCHTYEGDKESAQGGIGEAIVDIPEIPGFKDLEPMEQFIAQVDLCVDCTTGCLKGLANVQCSDLLKKWLPQRCATFASKIQGQVDKIKGAGGD ?
0.010
